Values from the supplement of paper PMC6555819

System: PPARg:RXRa 30nM:10nM, anti-RXR (NR concentration 30 nM, RXRa partner concentration 10 nM)
Experiment: PBM binding z-score (relative to random genomic background probes); higher = stronger binding; sequences stand for … in GC…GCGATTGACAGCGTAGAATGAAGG

| seq string | PBM binding z-score |
| --- | --- |
| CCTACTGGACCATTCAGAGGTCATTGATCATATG | 0.466 |
| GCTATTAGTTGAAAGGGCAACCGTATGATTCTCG | 2.25 |
| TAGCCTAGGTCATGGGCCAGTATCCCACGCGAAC | 0.754 |
| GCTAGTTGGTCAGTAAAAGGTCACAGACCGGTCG | 2.71 |
| TCAGACATGTGAAGGTAACTCAGGTACGCAGTCG | 3.48 |
| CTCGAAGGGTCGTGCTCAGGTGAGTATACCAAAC | -0.0599 |
| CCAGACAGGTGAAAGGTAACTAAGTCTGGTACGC | 4.37 |
| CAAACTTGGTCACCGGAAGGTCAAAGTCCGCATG | 0.605 |
| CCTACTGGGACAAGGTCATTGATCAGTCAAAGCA | 1.99 |
| CGTCCAAGGTCCGCAGGTCAGTGAAAGCGACGTG | -0.651 |
| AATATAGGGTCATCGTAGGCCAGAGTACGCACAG | 3.61 |
| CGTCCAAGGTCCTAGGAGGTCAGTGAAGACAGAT | -0.57 |

* * *

Test system: RARa:RXR (NR concentration 270 nM, RXRa partner concentration 90 nM)
Assay: PBM binding z-score (relative to random genomic background probes); higher = stronger binding; sequences stand for … in GC…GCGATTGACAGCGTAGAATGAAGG

| seq string | PBM binding z-score |
| --- | --- |
| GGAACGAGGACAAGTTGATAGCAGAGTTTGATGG | 0.108 |
| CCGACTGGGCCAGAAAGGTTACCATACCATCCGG | 1.83 |
| TCGAGTAGGTTAGTCGTGGCATTCAGCCAACATA | -0.421 |
| ATCTCTATGTAACAAGTTCAGTGAAAGAGAGGAC | 0.511 |
| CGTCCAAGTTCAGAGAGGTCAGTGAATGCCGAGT | 3.9 |
| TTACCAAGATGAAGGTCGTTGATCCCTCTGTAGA | 1.18 |
| CCTACTGGGCCATTCAGAGGTCATTGACCATATG | 4.52 |
| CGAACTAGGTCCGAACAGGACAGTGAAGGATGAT | -0.746 |
| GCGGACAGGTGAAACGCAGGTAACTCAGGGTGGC | 0.177 |
| TCTATTAGTCGAAGGGCAACCGACGAGTCCGTTT | 0.379 |

* * *

Test system: PPARg:RXRa DBDmut IVT, anti-RXR (DBD mutation: RXRa K156A/R161A, NR concentration 270 nM, RXRa partner concentration 90 nM)
Assay: PBM binding z-score (relative to random genomic background probes); higher = stronger binding; sequences stand for … in GC…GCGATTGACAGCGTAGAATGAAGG
Each record here notes measured PBM binding z-score.

| seq string | PBM binding z-score |
| --- | --- |
| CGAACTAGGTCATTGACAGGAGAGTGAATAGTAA | 7.92 |
| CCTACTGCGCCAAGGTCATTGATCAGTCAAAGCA | 0.265 |
| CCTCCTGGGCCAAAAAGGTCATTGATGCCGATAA | -0.0525 |
| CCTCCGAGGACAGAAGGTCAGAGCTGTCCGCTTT | -0.16 |
| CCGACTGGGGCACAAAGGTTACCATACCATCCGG | 3.32 |
| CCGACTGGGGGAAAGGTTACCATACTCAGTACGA | 2.52 |
| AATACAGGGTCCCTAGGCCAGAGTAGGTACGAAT | -0.243 |
| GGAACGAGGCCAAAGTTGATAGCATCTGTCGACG | 2.57 |
| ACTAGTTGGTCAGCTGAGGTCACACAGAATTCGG | 1.48 |
| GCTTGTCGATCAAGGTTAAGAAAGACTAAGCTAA | -0.33 |
| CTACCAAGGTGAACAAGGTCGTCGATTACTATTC | 2.69 |
| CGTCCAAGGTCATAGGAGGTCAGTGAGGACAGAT | 3.74 |
| CGTCCAAGGTCAATGCTAGGACAGTGAAAGCATT | 3.02 |
| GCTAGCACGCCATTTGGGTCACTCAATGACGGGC | 0.446 |
| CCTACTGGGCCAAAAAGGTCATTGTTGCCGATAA | 3.95 |
| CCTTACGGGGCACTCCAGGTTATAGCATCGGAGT | 0.818 |
| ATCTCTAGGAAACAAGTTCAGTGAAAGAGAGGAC | -0.477 |
| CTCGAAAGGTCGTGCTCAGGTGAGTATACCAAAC | 0.806 |
| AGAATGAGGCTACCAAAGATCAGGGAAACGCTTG | 1.61 |
| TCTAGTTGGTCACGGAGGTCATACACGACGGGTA | 2.41 |
| CCTGCTAGGTCATGGTCAGATAATCTACAGTATG | 4.17 |
| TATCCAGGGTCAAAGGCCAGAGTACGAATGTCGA | 2.23 |
| GATACAGGGTCAAAGCCAGAGTACGCGTATTGAT | 2.68 |
| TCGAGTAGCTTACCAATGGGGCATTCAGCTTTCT | 1.07 |
| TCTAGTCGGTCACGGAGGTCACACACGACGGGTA | 4.17 |
| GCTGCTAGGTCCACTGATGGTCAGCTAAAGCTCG | 0.0704 |

* * *

Tested on: VDR:RXRa (NR concentration 270 nM, RXRa partner concentration 90 nM)
Assay: PBM binding z-score (relative to random genomic background probes); higher = stronger binding; sequences stand for … in GC…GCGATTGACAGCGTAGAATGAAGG

| seq string | measurement target | PBM binding z-score |
| --- | --- | --- |
| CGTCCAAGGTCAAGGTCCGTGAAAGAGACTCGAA | VDR:RXRa (NR concentration 270 nM, RXRa partner concentration 90 nM) | 4.04 |
| TCATATGGGTAATACAGGTGAAAGTCGGCATCTA | VDR:RXRa (NR concentration 270 nM, RXRa partner concentration 90 nM) | 0.677 |
| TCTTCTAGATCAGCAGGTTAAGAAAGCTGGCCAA | VDR:RXRa (NR concentration 270 nM, RXRa partner concentration 90 nM) | 0.175 |
| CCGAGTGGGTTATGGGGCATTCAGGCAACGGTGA | VDR:RXRa (NR concentration 270 nM, RXRa partner concentration 90 nM) | -0.199 |
| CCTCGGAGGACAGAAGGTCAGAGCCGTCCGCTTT | VDR:RXRa (NR concentration 270 nM, RXRa partner concentration 90 nM) | 0.934 |
| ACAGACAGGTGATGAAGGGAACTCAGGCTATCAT | VDR:RXRa (NR concentration 270 nM, RXRa partner concentration 90 nM) | -0.182 |
| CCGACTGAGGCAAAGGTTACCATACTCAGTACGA | VDR:RXRa (NR concentration 270 nM, RXRa partner concentration 90 nM) | 1.07 |
| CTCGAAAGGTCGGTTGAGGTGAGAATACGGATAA | VDR:RXRa (NR concentration 270 nM, RXRa partner concentration 90 nM) | 2.26 |
| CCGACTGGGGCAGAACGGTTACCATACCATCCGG | VDR:RXRa (NR concentration 270 nM, RXRa partner concentration 90 nM) | -0.643 |
| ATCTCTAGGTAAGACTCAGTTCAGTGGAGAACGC | VDR:RXRa (NR concentration 270 nM, RXRa partner concentration 90 nM) | 0.529 |
| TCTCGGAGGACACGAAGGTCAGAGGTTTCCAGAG | VDR:RXRa (NR concentration 270 nM, RXRa partner concentration 90 nM) | 2.59 |
| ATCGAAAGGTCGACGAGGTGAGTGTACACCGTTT | VDR:RXRa (NR concentration 270 nM, RXRa partner concentration 90 nM) | 5.55 |
| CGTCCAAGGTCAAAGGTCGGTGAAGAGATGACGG | VDR:RXRa (NR concentration 270 nM, RXRa partner concentration 90 nM) | 5.32 |
| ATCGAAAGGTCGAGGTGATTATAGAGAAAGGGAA | VDR:RXRa (NR concentration 270 nM, RXRa partner concentration 90 nM) | 2.43 |
| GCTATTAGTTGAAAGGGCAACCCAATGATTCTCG | VDR:RXRa (NR concentration 270 nM, RXRa partner concentration 90 nM) | 0.662 |
| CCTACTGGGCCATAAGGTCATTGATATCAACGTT | VDR:RXRa (NR concentration 270 nM, RXRa partner concentration 90 nM) | 3.71 |
| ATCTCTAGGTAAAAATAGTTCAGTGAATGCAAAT | VDR:RXRa (NR concentration 270 nM, RXRa partner concentration 90 nM) | 1.11 |
| TCTATTAGTTGATTAGGCCAACCGAAACAGCGGA | VDR:RXRa (NR concentration 270 nM, RXRa partner concentration 90 nM) | 0.618 |
| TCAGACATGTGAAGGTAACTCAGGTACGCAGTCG | VDR:RXRa (NR concentration 270 nM, RXRa partner concentration 90 nM) | 0.627 |
| CCTAGTGGGCCATCAGGTCATTGATATCAACGTT | VDR:RXRa (NR concentration 270 nM, RXRa partner concentration 90 nM) | 1.61 |
| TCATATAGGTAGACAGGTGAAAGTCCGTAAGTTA | VDR:RXRa (NR concentration 270 nM, RXRa partner concentration 90 nM) | 0.905 |
| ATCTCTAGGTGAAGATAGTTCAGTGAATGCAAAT | VDR:RXRa (NR concentration 270 nM, RXRa partner concentration 90 nM) | 0.849 |
| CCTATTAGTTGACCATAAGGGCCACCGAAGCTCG | VDR:RXRa (NR concentration 270 nM, RXRa partner concentration 90 nM) | 0.0922 |
| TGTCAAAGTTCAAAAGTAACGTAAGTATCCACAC | VDR:RXRa (NR concentration 270 nM, RXRa partner concentration 90 nM) | 3.97 |
| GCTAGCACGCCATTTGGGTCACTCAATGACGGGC | VDR:RXRa (NR concentration 270 nM, RXRa partner concentration 90 nM) | -0.0776 |
| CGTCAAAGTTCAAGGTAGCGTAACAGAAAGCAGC | VDR:RXRa (NR concentration 270 nM, RXRa partner concentration 90 nM) | 3.68 |
